The values you see were collected from patent US12152038B2.

Target of assay: human Arginine Vasopressin Receptor 1a (AVPR1a) (Homo sapiens, UniProt P37288)
Construct: expressed in transfected cells; host or cells: CHO (CHO-AVPR1a, kept under G418 selection)
Sequence (P37288 whole entry): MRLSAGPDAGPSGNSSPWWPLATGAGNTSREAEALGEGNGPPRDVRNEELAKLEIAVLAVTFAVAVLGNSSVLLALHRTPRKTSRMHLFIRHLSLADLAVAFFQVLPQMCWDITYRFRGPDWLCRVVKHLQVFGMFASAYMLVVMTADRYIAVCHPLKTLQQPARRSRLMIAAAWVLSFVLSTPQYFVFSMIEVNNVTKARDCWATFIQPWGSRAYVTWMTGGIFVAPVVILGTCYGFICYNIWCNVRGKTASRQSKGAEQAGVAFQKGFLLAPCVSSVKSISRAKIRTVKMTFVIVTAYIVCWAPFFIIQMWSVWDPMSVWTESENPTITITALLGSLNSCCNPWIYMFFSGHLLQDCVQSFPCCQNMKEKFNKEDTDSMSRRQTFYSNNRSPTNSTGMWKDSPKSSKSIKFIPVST
Test description: Vasopressin V1a receptor antagonist assay (FLIPR calcium, CHO-AVPR1a cells)
Format: cell-based
pIC50: −log10 of the molar value.
Assay endpoint: pIC50

INSERT INTO assay_data (compound, assay_endpoint, reported_measurement) VALUES
  ('CC1CN(C(=O)N2CC3(C2)CN(c2ccc(F)cn2)C3)c2ccc(F)cc2O1 (single isomer, unassigned) [9-4-B]', 'pIC50', '> 7.00'),
  ('CC1COc2cc(Cl)ccc2N1C(=O)N1CC2(C1)CN(c1ccncn1)C2 (stereo not shown)', 'pIC50', '> 7.00'),
  ('O=C(N1CC2(C1)CN(c1cncnc1)C2)N1CCOc2cc(Cl)ccc21', 'pIC50', '6.30 to 7.00'),
  ('O=C(N1CC2(C1)CN(c1ncccc1F)C2)N1CCOc2cc(Cl)ccc21', 'pIC50', '> 7.00'),
  ('Cc1ccc(N2CC3(CN(C(=O)N4CCOc5cc(Cl)ccc54)C3)C2)nc1F', 'pIC50', '> 7.00'),
  ('Cn1ccc2ncc(N3CC4(CN(C(=O)N5CCOc6cc(Cl)ccc65)C4)C3)cc21', 'pIC50', '6.30 to 7.00'),
  ('CC1COc2cc(Cl)ccc2N1C(=O)N1CC2(C1)CN(c1ccccn1)C2 (stereo not shown) [1-60]', 'pIC50', '> 7.00'),
  ('O=C(N1CC2(C1)CN(c1ccc(F)cn1)C2)N1CCSc2cc(Cl)ccc21', 'pIC50', '> 7.00'),
  ('CC1COc2cc(Cl)ccc2N1C(=O)N1CC2(C1)CN(c1ncc(F)cn1)C2 (single isomer, unassigned) [18-2-A]', 'pIC50', '> 7.00'),
  ('Cc1nccnc1N1CC2(CN(C(=O)N3CCOc4cc(Cl)ccc43)C2)C1', 'pIC50', '> 7.00'),
  ('COc1ccnc(N2CC3(CN(C(=O)N4c5ccc(Cl)cc5OCC4C)C3)C2)c1 (single isomer, unassigned) [20-8-B]', 'pIC50', '> 7.00'),
  ('CC1COc2cc(F)ccc2N1C(=O)N1CC2(C1)CN(c1ccc(F)cn1)C2 (stereo not shown) [12-1]', 'pIC50', '> 7.00'),
  ('Cc1ccnc(N2CC3(CN(C(=O)N4c5ccc(Cl)cc5OCC4C)C3)C2)c1 (single isomer, unassigned) [20-11-B]', 'pIC50', '> 7.00'),
  ('CC1COc2cc(Cl)ccc2N1C(=O)N1CC2(C1)CN(c1cccnn1)C2 (stereo not shown) [9-1]', 'pIC50', '> 7.00'),
  ('CC(C)(C)OC(=O)N1CC2(C1)CN(C(=O)N1CCOc3cc(Cl)ccc31)C2', 'pIC50', '6.00 to 6.30'),
  ('CC1COc2cc(Cl)ccc2N1C(=O)N1CC2(C1)CN(c1ccc(F)cn1)C2 (single isomer, unassigned) [1-73-A]', 'pIC50', '> 7.00'),
  ('Cc1nc(N2CC3(CN(C(=O)N4c5ccc(Cl)cc5OCC4C)C3)C2)ncc1F (stereo not shown) [20-7]', 'pIC50', '> 7.00'),
  ('O=C(N1CC2(C1)CN(c1cncc(F)c1)C2)N1CCOc2cc(Cl)ccc21', 'pIC50', '6.30 to 7.00'),
  ('CC1COc2cc(F)ccc2N1C(=O)N1CC2(C1)CN(c1ncc(F)cn1)C2 (single isomer, unassigned) [18-4-B]', 'pIC50', '> 7.00'),
  ('CC1COc2cc(Cl)c(F)cc2N1C(=O)N1CC2(C1)CN(c1ncccn1)C2 (stereo not shown) [19-2]', 'pIC50', '> 7.00'),
  ('CC1Cc2cc(Cl)ccc2N1C(=O)N1CC2(C1)CN(c1ccc(F)cn1)C2 (stereo not shown)', 'pIC50', '> 7.00'),
  ('Cc1cc(F)nc(N2CC3(CN(C(=O)N4CCOc5cc(Cl)ccc54)C3)C2)c1', 'pIC50', '> 7.00'),
  ('O=C(N1CC2(C1)CN(c1ccc(F)cn1)C2)N1CCC(O)c2cc(Cl)ccc21 (stereo not shown) [13-1]', 'pIC50', '> 7.00'),
  ('COc1ccc2c(c1)OCC(C)N2C(=O)N1CC2(C1)CN(c1ccc(F)cn1)C2 (stereo not shown) [1-59]', 'pIC50', '> 7.00'),
  ('Cc1cncc(N2CC3(CN(C(=O)N4c5ccc(F)cc5OCC4C)C3)C2)n1 (single isomer, unassigned) [20-2-A]', 'pIC50', '6.00 to 6.30'),
  ('Cn1ccnc1N1CC2(CN(C(=O)N3CCOc4cc(Cl)ccc43)C2)C1', 'pIC50', '6.30 to 7.00'),
  ('O=C(N1CC2(CN(Cc3cccnc3)C2)C1)N1CCOc2cc(Cl)ccc21', 'pIC50', '≤ 6.00'),
  ('O=C(N1CC2(C1)CN(c1ccc(F)cn1)C2)N1CCC(O)c2c1ccc(Cl)c2F (single isomer, unassigned) [13-5-B]', 'pIC50', '> 7.00'),
  ('Cc1nc(N2CC3(CN(C(=O)N4CCOc5cc(Cl)ccc54)C3)C2)ccc1F', 'pIC50', '> 7.00'),
  ('CC1COc2cc(Cl)ccc2N1C(=O)N1CC2(C1)CN(c1cc(=O)n(C)cn1)C2 (single isomer, unassigned) [20-14-A]', 'pIC50', '≤ 6.00'),
  ('O=C(N1CC2(C1)CN(c1cnccn1)C2)N1CCC(O)c2cc(Cl)ccc21 (single isomer, unassigned) [13-3-A]', 'pIC50', '> 7.00'),
  ('CC1COc2cc(Cl)ccc2N1C(=O)N1CC2(C1)CN(c1ncc(F)cn1)C2 (stereo not shown) [18-2]', 'pIC50', '> 7.00'),
  ('COC1CCN(C(=O)N2CC3(C2)CN(c2ccc(F)cn2)C3)c2ccc(Cl)cc21 (stereo not shown)', 'pIC50', '> 7.00'),
  ('Cc1ccnc(N2CC3(CN(C(=O)N4c5ccc(F)cc5OCC4C)C3)C2)c1 (single isomer, unassigned) [20-4-B]', 'pIC50', '> 7.00');
